Cited source for all entries: ChEMBL document CHEMBL4340501

# Measured Target: Beta-2 adrenergic receptor (Cavia porcellus) (UniProt Q8K4Z4)
# Sequence (Q8K4Z4 whole entry, looked up): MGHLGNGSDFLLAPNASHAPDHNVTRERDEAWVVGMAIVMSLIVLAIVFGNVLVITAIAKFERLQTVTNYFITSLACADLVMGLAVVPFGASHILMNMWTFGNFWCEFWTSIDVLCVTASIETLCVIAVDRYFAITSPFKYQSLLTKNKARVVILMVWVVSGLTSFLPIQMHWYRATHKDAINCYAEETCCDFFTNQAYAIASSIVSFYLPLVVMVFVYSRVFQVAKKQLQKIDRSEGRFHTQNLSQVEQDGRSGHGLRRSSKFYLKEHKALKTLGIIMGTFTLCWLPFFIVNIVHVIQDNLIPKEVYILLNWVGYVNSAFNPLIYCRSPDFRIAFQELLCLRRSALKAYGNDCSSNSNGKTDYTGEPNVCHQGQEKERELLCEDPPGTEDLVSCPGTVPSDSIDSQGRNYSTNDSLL
# Experimental Details: Intrinsic activity at beta2 adrenergic receptor in Dunkin-Hartley guinea pig trachea assessed as reduction in histamine-induced muscle contraction relative to isoprenaline
# Format: tissue-based
Measured Endpoint: Intrinsic activity

Compound | Measured Target | Measured Endpoint | Quantitative Result
CC(C)(CCc1ccccc1)NC[C@H](O)c1ccc(O)c2[nH]c(=O)ccc12 | Beta-2 adrenergic receptor (Cavia porcellus) (UniProt Q8K4Z4) | Intrinsic activity | 0.97
COc1cccc(CCCNCC(O)c2ccc(O)c3[nH]c(=O)ccc23)c1 (centres undefined) | Beta-2 adrenergic receptor (Cavia porcellus) (UniProt Q8K4Z4) | Intrinsic activity | 0.39

P. COc1ccccc1CCCNCC(O)c1ccc(O)c2[nH]c(=O)ccc12 (centres undefined)
Q. O=c1ccc2c(C(O)CNCCCc3cccc(O)c3)ccc(O)c2[nH]1 (centres undefined)
Req: Which value of Intrinsic activity is smaller, the one for P or the one for Q ? Give the label under which the chosen entry appears.
Resp: P
